compounds and their reported pIC50
EXPERIMENTAL SYSTEM: human SGLT1 (Homo sapiens (Human))
METHOD NOTES: SGLT1 inhibitory activity: 14C-AMG uptake into CHO-K1 cell line stably expressing human SGLT1
Format: cell-based
CONDITION PARAMETERS: 14C-AMG uptake, CHO-K1 cells stably expressing human SGLT1
Field pIC50 (float): negative decimal logarithm of the concentration in molar.

Recorded pIC50, per entry:
- CC(C)(OCc1cccc(-c2cc(NC(=O)[C@@H]3CNC(=O)C3)nn2-c2ccc(F)cc2)c1)C(F)(F)F [Example 574]: 7.77
- COc1ccc(F)c(-n2nc(NC(=O)[C@@H]3CNC(=O)C3)cc2-c2cccc(CO[C@H](C)C(F)(F)F)c2)c1 [Example 523]: 8.67
- CC(C)COc1cccc(-c2cc(NC(=O)[C@@H]3CNC(=O)C3)nn2-c2ccccc2)c1 [Example 286]: 7.52
- O=C1C[C@H](C(=O)Nc2cc(-c3cccc(OCC(F)(F)F)c3)n(-c3ccccc3)n2)CN1 [Example 260]: 7.64
- CC(OCc1cccc(-c2cc(NC(=O)[C@@H]3CNC(=O)C3)nn2-c2ccccc2)c1)(C(F)(F)F)C(F)(F)F [Example 353]: 7.80

Report pIC50 for CCCc1cccc(-c2cc(NC(=O)[C@@H]3CNC(=O)C3)nn2-c2cccc(OCCCS(C)(=O)=O)c2)c1 [Example 492] please.
7.72

Proceed to C[C@@H](OCc1cccc(-c2cc(NC(=O)C3CCC(=O)NC3)nn2-c2ccccc2)c1)C(F)(F)F (stereo partly shown) [Example 565]
7.96

----------
EXPERIMENTAL SYSTEM: human SGLT1 (Homo sapiens (Human), UniProt P13866)
Sequence (P13866 whole entry): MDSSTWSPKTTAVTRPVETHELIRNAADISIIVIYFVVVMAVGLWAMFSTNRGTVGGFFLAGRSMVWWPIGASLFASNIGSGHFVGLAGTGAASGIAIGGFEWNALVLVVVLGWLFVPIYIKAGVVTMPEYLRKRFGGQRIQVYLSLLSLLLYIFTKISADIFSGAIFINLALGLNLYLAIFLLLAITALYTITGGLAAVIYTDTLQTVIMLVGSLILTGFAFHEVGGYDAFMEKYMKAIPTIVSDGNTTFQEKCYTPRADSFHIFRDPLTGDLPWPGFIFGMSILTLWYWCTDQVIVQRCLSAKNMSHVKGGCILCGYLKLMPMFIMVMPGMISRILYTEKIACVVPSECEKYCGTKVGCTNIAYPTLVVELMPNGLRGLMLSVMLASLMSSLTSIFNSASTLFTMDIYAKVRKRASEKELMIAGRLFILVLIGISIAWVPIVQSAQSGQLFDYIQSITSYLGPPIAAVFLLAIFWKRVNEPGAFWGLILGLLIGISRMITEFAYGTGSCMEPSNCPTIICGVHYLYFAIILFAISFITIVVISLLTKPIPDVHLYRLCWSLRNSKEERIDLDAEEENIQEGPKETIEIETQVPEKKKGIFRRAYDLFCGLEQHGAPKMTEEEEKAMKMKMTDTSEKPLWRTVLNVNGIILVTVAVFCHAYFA
METHOD NOTES: SGLT1 inhibitory activity: 14C-AMG uptake into CHO-K1 cell line stably expressing human SGLT1
Type: cell-based
CONDITION PARAMETERS: 14C-AMG uptake, CHO-K1 cells stably expressing human SGLT1
molecules and their reported pIC50
Field pIC50 (float): negative decimal logarithm of the concentration in molar.

• COc1cccc(-n2nc(NC(=O)[C@@H]3CNC(=O)C3)cc2-c2cccc(OC(F)(F)F)c2)c1F [Example 476] = 7.68

Report pIC50 for CCCc1cccc(-c2cc(NC(=O)[C@@H]3CNC(=O)C3)nn2-c2cccc(OCCO)c2)c1 [Example 408] please.
8.10

Proceed to COCCOc1cccc(-n2nc(NC(=O)[C@@H]3CNC(=O)C3)cc2-c2cccc(CO[C@H](C)C(F)(F)F)c2)c1 [Example 455]
8.51

Proceed to CCCc1cccc(-c2cc(NC(=O)C3CCS(=O)(=O)CC3)nn2-c2ccccc2)c1 [Example 302]
8.82

Proceed to CCCc1cccc(-c2cc(NC(=O)[C@@H]3CNC(=O)C3)nn2-c2ccccc2OC(C)C)c1 [Example 378]
7.68

Proceed to C[C@@H](OCc1cc(Cl)cc(-c2cc(NC(=O)[C@@H]3CNC(=O)C3)nn2C2CCOCC2)c1)C(F)(F)F [Example 584]
7.08

Proceed to CCCc1cccc(-c2cc(NC(=O)[C@@H]3CNC(=O)C3)nn2-c2cccc(OCC(F)(F)F)c2)c1 [Example 387]
7.90

Proceed to CCCc1cccc(-c2cc(NC(=O)[C@@H]3CNC(=O)C3)nn2-c2ccc(OCC(F)(F)F)cc2)c1 [Example 375]
7.89

Proceed to CCOc1cc(F)cc(-n2nc(NC(=O)[C@@H]3CNC(=O)C3)cc2-c2cccc(CO[C@H](C)C(F)(F)F)c2)c1 [Example 534]
8.74

Proceed to CCCc1cccc(-c2cc(NC(=O)C34CNC(=O)C3C4)nn2-c2ccccc2)c1 (stereo not drawn) [Example 249]
7.41

Proceed to CC(C)(OCc1cc(F)cc(-c2cc(NC(=O)[C@H]3CNC(=O)N3)nn2-c2ccccc2)c1)C(F)(F)F [Example 601]
7.51

----------
molecules and their reported pIC50
EXPERIMENTAL SYSTEM: human SGLT1 (Homo sapiens (Human), UniProt P13866)
METHOD NOTES: SGLT1 inhibitory activity: 14C-AMG uptake into CHO-K1 cell line stably expressing human SGLT1
Assay type: cell-based
CONDITION PARAMETERS: 14C-AMG uptake, CHO-K1 cells stably expressing human SGLT1
Field pIC50 (float): negative decimal logarithm of the concentration in molar.

• CCCc1cccc(-c2cc(NC(=O)[C@@H]3CNC(=O)C3)nn2-c2cccc(OCc3ccccc3)c2)c1 = 7.80
• C[C@@H](OCc1cccc(-c2cc(NC(=O)[C@H]3CNC(=O)O3)nn2-c2ccccc2)c1)C(F)(F)F = 7.94
• O=C1C[C@H](C(=O)Nc2cc(-c3cccc(OC(F)(F)F)c3)n(-c3ccccc3Cl)n2)CN1 = 8.12
• CCCOc1cccc(-n2nc(NC(=O)[C@@H]3CNC(=O)C3)cc2-c2cccc(CCC)c2)c1 = 8.17
• O=C1NC[C@H](C(=O)Nc2cc(-c3cccc(OC(F)(F)F)c3)n(-c3ccccc3)n2)O1 = 7.41
• O=C1C[C@@H](C(=O)Nc2cc(-c3cccc(COCCC(F)(F)F)c3)n(-c3ccccc3)n2)CN1 = 8.00
• O=C1CCC(C(=O)Nc2cc(-c3cccc(COCCC(F)(F)F)c3)n(-c3ccccc3)n2)CN1 (single isomer, unassigned) = 7.77
• CCCc1cccc(-c2cc(NC(=O)[C@@H]3CNC(=O)C3)nn2-c2cccc(C)c2C)c1 = 8.32
• C[C@@H](OCc1cccc(-c2cc(NC(=O)[C@@H]3CNC(=O)C3)nn2-c2cccc(OCc3ccccc3)c2)c1)C(F)(F)F = 8.51
• COC(C)(C)c1cccc(-c2cc(NC(=O)C3CNC(=O)NC3)nn2-c2ccccc2)c1 = 6.54

Report pIC50 for `CCCc1cccc(-c2cc(NC(=O)[C@@H]3CNC(=O)C3)nn2-c2cccc(OC)c2)c1` please.
8.14

Proceed to `CCCc1cccc(-c2cc(NC(=O)[C@@H]3CNC(=O)C3)nn2-c2ccc(F)c(OCCOC)c2)c1`
7.94

Proceed to `CCCc1cccc(-c2cc(NC(=O)[C@@H]3CNC(=O)C3)nn2-c2cccc(C(F)(F)F)c2)c1`
7.89

Proceed to `C[C@@H](OCc1cccc(-c2cc(NC(=O)[C@@H]3CNC(=O)C3)nn2-c2ccc(Cl)cc2)c1)C(F)(F)F`
8.10

Proceed to `CCCc1cccc(-c2cc(NC(=O)[C@@H]3CNC(=O)C3)nn2-c2cccc(OC3CCCC3)c2)c1`
7.92

Proceed to `C[C@@H](OCc1cc(Cl)cc(-c2cc(NC(=O)[C@@H]3CNC(=O)C3)nn2-c2ccccc2)c1)C(F)(F)F`
8.00

Proceed to `CC(C)Oc1cccc(-n2nc(NC(=O)[C@@H]3CNC(=O)C3)cc2-c2cccc(COCC(F)(F)F)c2)c1`
8.64

Proceed to `CC(C)Oc1cccc(-n2nc(NC(=O)[C@@H]3CNC(=O)C3)cc2-c2cccc(COCC(F)(F)F)c2)c1F`
7.92

Proceed to `C[C@@H](OCc1cc(F)cc(-c2cc(NC(=O)[C@@H]3CNC(=O)C3)nn2-c2cccc(F)c2)c1)C(F)(F)F`
8.29

Proceed to CCCc1cccc(-c2cc(NC(=O)C3CC(=O)NC3C)nn2-c2ccccc2)c1 (single isomer, unassigned)
7.74

----------
EXPERIMENTAL SYSTEM: human SGLT1 (Homo sapiens (Human))
METHOD NOTES: SGLT1 inhibitory activity: 14C-AMG uptake into CHO-K1 cell line stably expressing human SGLT1
Format: cell-based
CONDITION PARAMETERS: 14C-AMG uptake, CHO-K1 cells expressing human SGLT1
compounds and their reported IC50
Just the number in nM, nothing appended.

Recorded IC50, per entry:
* O=C1CCC(C(=O)Nc2cc(-c3ccccc3)n(-c3ccccc3)n2)CN1 (racemic) | 5500
* CCCc1cccc(-c2cc(NC(=O)[C@H]3CNC(=O)C3)nn2-c2ccccc2Cl)c1 | 1.9
* CCCc1cccc(-c2cc(NC(=O)[C@H]3CNC(=O)C3)nn2C2CCOCC2)c1 | 28

Continue with the next compound.
Report IC50 for `O=C1C[C@H](C(=O)Nc2cc(-c3cccc(Cl)c3)n(-c3ccccc3)n2)CN1` please.
350

----------
compounds and their reported IC50
EXPERIMENTAL SYSTEM: human SGLT1 (Homo sapiens (Human))
METHOD NOTES: SGLT1 inhibitory activity: 14C-AMG uptake into CHO-K1 cell line stably expressing human SGLT1
Assay type: cell-based
CONDITION PARAMETERS: 14C-AMG uptake, CHO-K1 cells stably expressing human SGLT1
Just the number in nM, nothing appended.

* CCCc1cccc(-c2cc(NC(=O)[C@@H]3CNC(=O)C3)nn2-c2cccc(C#CC(C)(C)C)c2)c1 | 22
* O=C1C[C@H](C(=O)Nc2cc(-c3cccc(OCCC(F)(F)F)c3)n(-c3ccccc3)n2)CN1 | 37
* CCCc1cccc(-c2cc(NC(=O)[C@@H]3CNC(=O)C3)nn2-c2ccc(F)c(OC(C)C)c2)c1 | 3.75

Report IC50 for `COc1cc(-n2nc(NC(=O)[C@@H]3CNC(=O)C3)cc2-c2cccc(CO[C@H](C)C(F)(F)F)c2)ccc1F` please.
3.7

Proceed to `O=C1C[C@H](C(=O)Nc2cc(-c3cccc(COC(C(F)(F)F)C(F)(F)F)c3)n(-c3ccc(F)cc3)n2)CN1`
12

Proceed to `CC(C)(OCc1cc(Cl)cc(-c2cc(NC(=O)[C@@H]3CNC(=O)C3)nn2-c2ccc(F)cc2)c1)C(F)(F)F`
12

Proceed to `O=C1C[C@H](C(=O)Nc2cc(-c3cc(F)cc(COCC(F)(F)F)c3)n(-c3ccccc3F)n2)CN1`
13

Reference for the values: patent US8846746B2
